test system: TCRV-p; test: organism not typed; assay type: cell-based; conditions: read-out: TCRV-p EC50
endpoint_label: pEC50
Note: pEC50 values are expressed as the negative base-10 logarithm of concentration in M.

[Q] Given the compound `Cc1cc2ncc(-c3ccc(OC(C)(C)C)cc3)n2cc1-c1ccc(OC(C)C)cc1` , what is its reported pEC50?
[A] 9.70

[Q] Name the reported pEC50 value associated with the compound `Cc1cc2ncn(-c3ccc(OC(C)C)cc3)c2cc1-c1ccc(C(C)(C)O)cc1`
[A] 9.68

[Q] What does the data say about its pEC50? Entry: `Cc1cc2ncn(-c3ccc(OC(C)(C)C)cc3)c2cc1-c1ccc(OC(C)C)cc1`
[A] 9.92

[Q] What does the data say about its pEC50? Entry: `CC(C)Oc1ccc(-c2cc3c(cc2Cl)nnn3-c2ccc(OC(C)C)cc2)cc1`
[A] 9.21

[Q] Report pEC50 for `[2H]C([2H])([2H])C([2H])(Oc1ccc(-c2cn3c(-c4ccc(OC(C)(C)C)cc4)cnc3cc2C)cc1)C([2H])([2H])[2H]` please.
[A] 9.70

[Q] Requested read-out: pEC50. Entry: `Cc1cc2ncc(-c3ccc(C(C)(C)O)cc3)n2cc1-c1ccc(OC(C)C)cc1`
[A] 9.49

[Q] Any idea what its pEC50 is? The compound is `Cc1cc2ncc(-c3ccc(OC(C)C)cc3)n2cc1-c1ccc(C(C)(C)O)cc1`
[A] 10.00

[Q] Can you share its pEC50? I mean this compound: `Cc1cc2ncn(-c3ccc(OC(C)(C)C)cc3)c2cc1-c1ccc(C(C)(C)O)cc1`
[A] 9.62

[Q] # lookup: pEC50 of `Cc1cc2ncc(-c3ccc(OC(C)(C)C)cc3)n2cc1-c1ccc(C(C)(C)O)cc1`
[A] 10.00
